Values from ChEMBL document CHEMBL1156783

- tested-on: CYP3A4 (Homo sapiens)
- Sequence (P08684 whole entry): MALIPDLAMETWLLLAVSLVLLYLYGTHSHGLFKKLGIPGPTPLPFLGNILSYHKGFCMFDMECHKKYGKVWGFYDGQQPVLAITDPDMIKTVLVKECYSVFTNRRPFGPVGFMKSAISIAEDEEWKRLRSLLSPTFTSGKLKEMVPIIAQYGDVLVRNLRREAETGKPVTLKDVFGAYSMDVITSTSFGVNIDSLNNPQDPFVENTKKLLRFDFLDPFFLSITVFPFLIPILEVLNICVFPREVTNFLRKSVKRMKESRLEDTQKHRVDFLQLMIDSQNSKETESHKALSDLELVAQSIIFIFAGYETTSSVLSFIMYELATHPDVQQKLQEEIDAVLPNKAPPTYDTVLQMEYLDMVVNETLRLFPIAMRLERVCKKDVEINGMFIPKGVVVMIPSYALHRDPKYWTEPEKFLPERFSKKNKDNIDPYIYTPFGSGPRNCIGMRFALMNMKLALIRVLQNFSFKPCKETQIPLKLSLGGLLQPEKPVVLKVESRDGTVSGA
- assay-overview: Inhibition of human CYP3A4 at 10 uM after 15 mins
- Type: ADME
property-measured: inhibition at 0.25 h, 10 µM (%)
State just the number; it will be interpreted in %.

Look up inhibition at 0.25 h, 10 µM with CYP3A4 (Homo sapiens) for this compound: Cn1nnc(-c2ccc(Nc3nccc(-c4cc(C#N)cc(N5CCOCC5)c4)n3)cc2)n1 15

Try this compound too: Fc1cc(-c2ccnc(Nc3ccc(-n4cnc(N5CCOCC5)n4)cc3)n2)cc(N2CCOCC2)c1 89

Try this compound too: N#Cc1cc(-c2ccnc(Nc3ccc(-n4cnc(-c5ccccn5)n4)cc3)n2)cc(N2CCOCC2)c1 33

Try this compound too: Cc1ncn(-c2ccc(Nc3nccc(-c4cccc(N5CCOCC5)c4)n3)cc2)n1 48
